- Test system: Streptococcus sp.
- test: in vitro antibacterial evaluation, MIC by broth dilution
- Format: cell-based
- experimental.conditions: broth dilution, 18 hours at 35° C.
Entries and their MIC Streptococcus pneumoniae (GC 4565)
assay.metric: MIC Streptococcus pneumoniae (GC 4565)

>>> result("CC(c1ccccc1)C1NC(=O)CNC(=O)C(CO)NC(=O)C(C(O)C2CNC(=N)N2C2OC(CO)C(O)C(O)C2O)NC(=O)C(C(O)C2CNC(=N)N2)NC(=O)C(Cc2ccc(OC3OC(CO)C(OC4OC(COC(=O)C(c5ccccc5)c5ccccc5)C(O)C(O)C4O)C(O)C3O)cc2)NC1=O (stereo not drawn) [Example 96c]")
"<0.06 µg/mL"
>>> result("CC(c1ccccc1)C1NC(=O)CNC(=O)C(CO)NC(=O)C(C(O)C2CNC(=N)N2C2OC(CO)C(O)C3OC(C)(C)OC32)NC(=O)C(C(O)C2CNC(=N)N2)NC(=O)C(Cc2ccc(OC3OC(CO)C(OC4OC(CO)C(O)C5OC(C)(C)OC45)C4OC(C)(C)OC34)cc2)NC1=O (stereo not drawn) [Example 229a]")
">128 µg/mL"
>>> result("CC(c1ccccc1)C1NC(=O)CNC(=O)C(CO)NC(=O)C(C(O)C2CNC(=N)N2C2OC(CO)C(O)C(O)C2O)NC(=O)C(C(O)C2CNC(=N)N2)NC(=O)C(Cc2ccc(OC3OC(CO)C(OC4OC(COCC=C(c5ccccc5)c5ccccc5)C(O)C(O)C4O)C(O)C3O)cc2)NC1=O (stereo not drawn) [Example 241]")
"<0.06 µg/mL"

----------
- Test system: Staphylococcus sp.
- test: in vitro antibacterial evaluation, MIC by broth dilution
- Format: cell-based
- experimental.conditions: broth dilution, 18 hours at 35° C.
- Text: Methods for in vitro Antibacterial Evaluation (Table 1) […]
Square brackets hold non-standard residues; d marks the D form. Peptide text beside a SMILES is read from it. * marks the point of attachment. ξ: configuration not given here. ξEnduracididine(βξ-OH,4'ξ) = N=C1NCC(C(O)C(N)C(=O)O)N1; X2 = OCC1OC(OC2C(CO)OC(*)C(O)C2O)C(O)C(O)C1O
Entries and their MIC Staphylococcus aureus (GC 4544)
assay.metric: MIC Staphylococcus aureus (GC 4544)

>>> result("N=C1NCC(C(O)C2NC(=O)C(Cc3ccc(OC4OC(CO)C(OC5OC(CO)C(O)C(O)C5O)C(O)C4O)cc3)NC(=O)C(Cc3ccccc3)NC(=O)CNC(=O)C(CO)NC(=O)C(C(O)C3CNC(=N)N3)NC2=O)N1 (stereo not drawn) [Example 296] (cyclo(GFY(X2)[ξEnduracididine(βξ-OH,4'ξ)][ξEnduracididine(βξ-OH,4'ξ)]S); configuration not given here)")
">128 µg/mL"
>>> result("CCCOc1ccc(COCC2OC(OC3C(CO)OC(Oc4ccc(CC5NC(=O)C(C(C)c6ccccc6)NC(=O)CNC(=O)C(CO)NC(=O)C(C(O)C6CNC(=N)N6C6OC(CO)C(O)C(O)C6O)NC(=O)C(C(O)C6CNC(=N)N6)NC5=O)cc4)C(O)C3O)C(O)C(O)C2O)cc1 (stereo not drawn) [Example 235]")
"1 to 2 µg/mL"
>>> result("COc1ccc2cc(COC3C(CO)OC(OC4C(CO)OC(Oc5ccc(CC6NC(=O)C(C(C)c7ccccc7)NC(=O)CNC(=O)C(CO)NC(=O)C(C(O)C7CNC(=N)N7C7OC(CO)C(O)C(O)C7O)NC(=O)C(C(O)C7CNC(=N)N7)NC6=O)cc5)C(O)C4O)C(O)C3O)ccc2c1 (stereo not drawn) [Example 230a]")
"1 to 2 µg/mL"

----------
Entries and their MIC Staphylococcus aureus (GC 4542)
- Test system: Staphylococcus sp.
- test: in vitro antibacterial evaluation, MIC by broth dilution
- Assay type: cell-based
- experimental.conditions: broth dilution, 18 hours at 35° C.; strain GC 4542
Numbered stars: 1 amine (or outer) side, 2 acyl side, 3 side chain; on linkers, the order of the positions; unused ones are H or OH. Square brackets hold non-standard residues; d marks the D form. Peptide text beside a SMILES is read from it. ξ: configuration not given here. X1 = N=C1NCC(C(O)C(N[*:1])C(=O)[*:2])N1C1OC(CO)C(O)C(O)C1O; ξEnduracididine(βξ-OH,4'ξ) = N=C1NCC(C(O)C(N)C(=O)O)N1; Tyr(3-NO2) = N[CH](Cc1ccc(O)c([N+](=O)[O-])c1)C(=O)O; ξPhe(βξ-Me) = CC(c1ccccc1)C(N)C(=O)O
assay.metric: MIC Staphylococcus aureus (GC 4542)

>>> result("CC(c1ccccc1)C1NC(=O)CNC(=O)C(CO)NC(=O)C(CC2CNC(=N)N2C2OC(CO)C(O)C(O)C2O)NC(=O)C(CC2CNC(=N)N2)NC(=O)C(Cc2ccc(OC3OC(CO)C(OC4OC(CO)C(O)C(O)C4O)C(O)C3O)cc2)NC1=O (stereo not drawn) [Example 277a]")
">128 µg/mL"
>>> result("CC(c1ccccc1)C1NC(=O)CNC(=O)C(CO)NC(=O)C(C(O)C2CNC(=N)N2C2OC(CO)C(O)C(O)C2O)NC(=O)C(C(O)C2CNC(=N)N2)NC(=O)C(Cc2ccc(OC3OC(CO)C(OC4OC5COC(Cc6ccc(Br)cc6)OC5C(O)C4O)C(O)C3O)cc2)NC1=O (stereo not drawn)")
"<0.5 to 1 µg/mL"
>>> result("CC(c1ccccc1)C1NC(=O)CNC(=O)C(CO)NC(=O)C(C(O)C2CNC(=N)N2C2OC(CO)C(O)C(O)C2O)NC(=O)C(C(O)C2CNC(=N)N2)NC(=O)C(Cc2ccc(O)c([N+](=O)[O-])c2)NC1=O (stereo not drawn) [Example 8] (cyclo(G[ξPhe(βξ-Me)][Tyr(3-NO2)][ξEnduracididine(βξ-OH,4'ξ)][X1]S); configuration not given here)")
">128 µg/mL"

----------
Entries and their MIC Staphylococcus aureus (GC 4545)
- Test system: Staphylococcus sp.
- test: in vitro antibacterial evaluation, MIC by broth dilution
- Type: cell-based
- experimental.conditions: broth dilution, 18 hours at 35° C.
assay.metric: MIC Staphylococcus aureus (GC 4545)

>>> result("CC(c1ccccc1)C1NC(=O)CNC(=O)C(CO)NC(=O)C(C(O)C2CNC(=N)N2C2OC(CO)C(O)C(O)C2O)NC(=O)C(C(O)C2CNC(=N)N2)NC(=O)C(Cc2ccc(OC3OC(CO)C(OC4OC(COCc5ccc(OCc6ccccc6)cc5)C(O)C(O)C4O)C(O)C3O)cc2)NC1=O (stereo not drawn)")
"1 to 4 µg/mL"
>>> result("CC(c1ccccc1)C1NC(=O)CNC(=O)C(CO)NC(=O)C(C(O)C2CNC(=N)N2C2OC(CO)C(O)C(O)C2O)NC(=O)C(C(O)C2CNC(=N)N2)NC(=O)C(Cc2ccc(OC3OC(CO)C(OC4OC(CO)C(OCc5ccc(OCc6ccccc6)cc5)C(O)C4O)C(O)C3O)cc2)NC1=O (stereo not drawn) [Example 231a]")
"1 to 2 µg/mL"
>>> result("CC(c1ccccc1)C1NC(=O)CNC(=O)C(CO)NC(=O)C(C(O)C2CNC(=N)N2C2OC(CO)C(O)C(O)C2O)NC(=O)C(C(O)C2CNC(=N)N2)NC(=O)C(Cc2ccc(OC3OC(CO)C(OC4OC5COC(Cc6ccccc6)OC5C(O)C4O)C(O)C3O)cc2)NC1=O (stereo not drawn)")
"0.5 to 1 µg/mL"

----------
- test: anatomic pathology (histopathology of heart and kidney) in mice
- Assay type: in vivo
- experimental.conditions: CD-1 mice, 20 mg/kg intravenously daily for 9 days, necropsy day 10, microscopic histopathology
assay.metric: Anatomical Pathology (Day 10), Kidney

>>> result("CC(c1ccccc1)C1NC(=O)CNC(=O)C(CO)NC(=O)C(C(O)C2CN(Cc3ccccc3-c3ccccc3)C(=N)N2C2OC(CO)C(O)C(O)C2O)NC(=O)C(C(O)C2CNC(=N)N2)NC(=O)C(Cc2ccc(OC3OC(CO)C(OC4OC(CO)C(O)C(O)C4O)C(O)C3O)cc2)NC1=O (stereo not shown)")
"+++"
>>> result("CC(c1ccccc1)C1NC(=O)CNC(=O)C(CO)NC(=O)C(C(O)C2CNC(=N)N2C2OC(CO)C(O)C(O)C2O)NC(=O)C(C(O)C2CNC(=N)N2)NC(=O)C(Cc2ccc(OC3OC(CO)C(OC4OC5COC(c6ccc(C(=O)O)cc6)OC5C(O)C4O)C(O)C3O)cc2)NC1=O (stereo not shown)")
"+++"
>>> result("CC(c1ccccc1)C1NC(=O)CNC(=O)C(CO)NC(=O)C(C(O)C2CNC(=N)N2C2OC(CO)C(O)C(O)C2O)NC(=O)C(C(O)C2CNC(=N)N2)NC(=O)C(Cc2ccc(OC3OC(CO)C(OC4OC5COC(Cc6ccccc6)OC5C(O)C4O)C(O)C3O)cc2)NC1=O (stereo not shown)")
"+++"
>>> result("COc1ccc2cc(COC3C(CO)OC(OC4C(CO)OC(Oc5ccc(CC6NC(=O)C(C(C)c7ccccc7)NC(=O)CNC(=O)C(CO)NC(=O)C(C(O)C7CNC(=N)N7C7OC(CO)C(O)C(O)C7O)NC(=O)C(C(O)C7CNC(=N)N7)NC6=O)cc5)C(O)C4O)C(O)C3O)ccc2c1 (stereo not shown) [Example 230a]")
"+"
